# protocol_description: H1N1 influenza NS1A inhibitors, functional cell based assay (AID 504329)
# test_conditions: percent inhibition, at 12.5 µM, active compounds read high
In all, about 340,000 compounds went through this assay and about 1,000 (0.29%) were called active. These entries were drawn from the full list. Results with a measured potency or affinity are listed apart.
Assign inhibition to each entry below.
Express the result in % but write the number alone.

**Query** Tell me the measured inhibition of COC(=O)c1cc(NS(=O)(=O)c2ccc(NC(C)=O)cc2)ccc1Cl , please.
**Result** 10.8

**Query** Tell me the measured inhibition of Cc1ccc(NC2=CC(=O)C(=O)c3ccccc32)cc1 , please.
**Result** 2.25

**Query** Tell me the measured inhibition of S=c1[nH]cnc2scc(-c3ccccc3)c12 , please.
**Result** 2.25

**Query** Tell me the measured inhibition of CN(CC(=O)Nc1ccc(Cl)cc1F)C1=NS(=O)(=O)c2ccccc21 , please.
**Result** 5.4

**Query** Tell me the measured inhibition of CC(C)N(C(=O)CN1C(=O)NC2(CCCCCC2)C1=O)C(C)C , please.
**Result** -2.18

**Query** Tell me the measured inhibition of Cc1ccc(C(=O)NC(=S)/C=C2\N(C)c3ccccc3C2(C)C)cc1 , please.
**Result** 5.06

**Query** Tell me the measured inhibition of Cc1ccc(S(=O)(=O)NCC(=O)OCC(=O)NCc2ccco2)cc1 , please.
**Result** -3.09

**Query** Tell me the measured inhibition of COC(=O)C1CN(C(=O)c2ccc(OC(F)F)cc2)c2ccccc2O1 (stereo unspecified) , please.
**Result** 8.47

**Query** Tell me the measured inhibition of COc1ccccc1C(=O)NC(=S)/C=C1/N(C)c2ccccc2C1(C)C , please.
**Result** 22.9

**Query** Tell me the measured inhibition of O=C(C1CC(=O)N(c2ccc(F)cc2)C1)N1CCC(c2nc3ccccc3[nH]2)CC1 (stereo unspecified) , please.
**Result** -1.46

**Query** Tell me the measured inhibition of CN(CCO)c1cc(N2CCN(C(=O)c3ccco3)CC2)c2nonc2c1[N+](=O)[O-] , please.
**Result** -1.02

----------
# protocol_description: H1N1 influenza NS1A inhibitors, functional cell based assay (AID 504329)
# test_conditions: percent inhibition, at 12.5 µM, active compounds read high
The campaign covered roughly 340,000 compounds. About 1,000 (0.29%) were called active. Only a sample is shown. Results with a measured potency or affinity are listed apart.
Assign inhibition to each entry below.

**Query** Tell me the measured inhibition of CN(CC(=O)Nc1ccc2c(c1)OCO2)S(=O)(=O)c1ccc(F)cc1 , please.
**Result** 0.79% (inactive)

**Query** Tell me the measured inhibition of C/C(=N/NC(=O)c1ccccn1)c1c[nH]c2ccccc12 , please.
**Result** 9.32% (inactive)

**Query** Tell me the measured inhibition of Cc1sc2ncnc(Nc3ccccc3)c2c1C , please.
**Result** 1.18% (inactive)

**Query** Tell me the measured inhibition of O=C(N/N=C(\c1ccccc1)c1ccccn1)c1ccccc1Cl , please.
**Result** 7.83% (inactive)

**Query** Tell me the measured inhibition of O=C(O)[C@H](Cc1ccccc1)N1C(=O)c2ccncc2C1=O , please.
**Result** -6.13% (inactive)

**Query** Tell me the measured inhibition of O=C(COC(=O)/C=C/c1ccccc1[N+](=O)[O-])NC1CC1 , please.
**Result** 0.04% (inactive)

**Query** Tell me the measured inhibition of C/C(=N\Nc1ccc(Cl)cc1)c1ccccn1 , please.
**Result** -19.3% (inactive)

**Query** Tell me the measured inhibition of Cc1ccc(NCC(=O)N/N=C/c2ccncc2)cc1 , please.
**Result** -3.31% (inactive)

**Query** Tell me the measured inhibition of CN(C)c1ccc2c(c1)OC(N)=C(C#N)C2c1cccc(F)c1 (configuration not stated) , please.
**Result** -65.2% (inactive)

**Query** Tell me the measured inhibition of Nc1n[nH]c(N)c1N=Nc1cccc(F)c1 , please.
**Result** 1.03% (inactive)

**Query** Tell me the measured inhibition of C/C(=N/NC(=O)c1ccccn1)c1ccncc1 , please.
**Result** 19.9% (inactive)

**Query** Tell me the measured inhibition of CN(C)c1ccc(N=Nc2ccc(C(=O)O)cc2)cc1 , please.
**Result** -2.64% (inactive)

----------
# protocol_description: H1N1 influenza NS1A inhibitors, functional cell based assay (AID 504329)
# test_conditions: percent inhibition, at 12.5 µM, active compounds read high
Among all 340,000 compounds or so, about 1,000 (0.29%) were called active. Only a sample is shown. Entries with a potency or affinity are not part of this list.
value_kind: inhibition (%)
Express the result in % but write the number alone.

**Query** Tell me the measured inhibition of CS(=O)(=O)N(CC(=O)NCC1CCCO1)Cc1ccc(Cl)cc1 (stereo unspecified) , please.
**Result** -3.33

**Query** Tell me the measured inhibition of CCCCNc1nc(N)ncc1[N+](=O)[O-] , please.
**Result** -2.32

**Query** Tell me the measured inhibition of Cc1ccc(C)c(NC(=O)CCC(=O)N/N=C/c2cc([N+](=O)[O-])ccc2O)c1 , please.
**Result** 8.85

**Query** Tell me the measured inhibition of Cc1ccc(OCC(=O)N2CCC(N3CC(C)CC(C)C3)CC2)cc1 (stereo unspecified) , please.
**Result** 17

**Query** Tell me the measured inhibition of C[C@H](OC(=O)c1[nH]cnc1C(=O)N1CCN(C(=O)OC(C)(C)C)CC1)c1ccccc1 , please.
**Result** -7.71

**Query** Tell me the measured inhibition of O=C(NCc1ccccn1)/C(=C/c1ccco1)NC(=O)c1ccccc1 , please.
**Result** 1.38

**Query** Tell me the measured inhibition of COc1ccc(CCCc2nnc(SCC(=O)Nc3cc(C)c(C)cc3Br)o2)cc1 , please.
**Result** -5.67

**Query** Tell me the measured inhibition of COc1cc(SC)ccc1C(=O)Nc1ccc2c(c1)CCN2S(C)(=O)=O , please.
**Result** 0.73

**Query** Tell me the measured inhibition of Cc1ccc(NC(=O)CCC(=O)N/N=C/c2cc([N+](=O)[O-])ccc2O)cc1 , please.
**Result** -7.13

**Query** Tell me the measured inhibition of CN=c1c([N+](=O)[O-])nn(-c2ccc3c(c2)OCCO3)n1O , please.
**Result** 2.75

**Query** Tell me the measured inhibition of Cc1ccc(NC(=O)c2cc(-c3ccccc3)n[nH]2)cc1 , please.
**Result** -9.32

**Query** Tell me the measured inhibition of Oc1ccc(F)c2cccnc12 , please.
**Result** 3.59

**Query** Tell me the measured inhibition of CCCCn1c(N)c(N(CCOC)C(=O)COC(=O)COc2c(C)cccc2C)c(=O)[nH]c1=O , please.
**Result** -13

**Query** Tell me the measured inhibition of CCN(CC)C(=O)Oc1cc(=O)n2c3c(cccc13)CCC2 , please.
**Result** 2.43

**Query** Tell me the measured inhibition of CCOc1ccc2oc(C(=O)N(Cc3nnc(-c4ccccc4Cl)o3)C3CC3)c(C)c2c1 , please.
**Result** -5.39

**Query** Tell me the measured inhibition of COc1cccc2cc(C(=O)NCC3CCCO3)c(=O)oc12 (stereo unspecified) , please.
**Result** 6.96

**Query** Tell me the measured inhibition of Cc1ccc(S(=O)(=O)Nc2cc(Cl)c(O)cc2C)cc1 , please.
**Result** 6.58

**Query** Tell me the measured inhibition of CC(=O)c1ccccc1OCC(O)CN1CCN(c2ccccn2)CC1 (stereo unspecified) , please.
**Result** -18.6

**Query** Tell me the measured inhibition of O=[N+]([O-])c1nn(-c2ccc3c(c2)OCCO3)n(O)c1=NC1CCCCC1 , please.
**Result** 9.84

**Query** Tell me the measured inhibition of C=CCNC(=S)/C(=C(/[O-])c1ccc([N+](=O)[O-])cc1)[n+]1ccccc1 , please.
**Result** -7.17

**Query** Tell me the measured inhibition of CN1CCN(CCC(=O)N/N=C/c2cc([N+](=O)[O-])ccc2OC(F)F)CC1 , please.
**Result** -8.9

**Query** Tell me the measured inhibition of Cc1sc2nc(SCC(=O)Nc3cccc(C(=O)O)c3)[nH]c(=O)c2c1C , please.
**Result** -8.26

**Query** Tell me the measured inhibition of COc1ccc(NC(=S)N(CCCN2CCOCC2)Cc2cn(C)c3ccccc23)cc1OC , please.
**Result** 2.8

**Query** Tell me the measured inhibition of O=[N+]([O-])c1ccc2c(c1N1CCCCC1)=NC1(CCCCC1)[N+]=2[O-] , please.
**Result** -7.13

**Query** Tell me the measured inhibition of COC(=O)c1ccc(CNC(=O)c2sccc2-c2ccccc2)cc1 , please.
**Result** 4.96

**Query** Tell me the measured inhibition of Cc1ccc(S(=O)(=O)Nc2cccc3cccnc23)cc1 , please.
**Result** -11

**Query** Tell me the measured inhibition of O=C(Nc1cccc(Cl)c1)c1cnccn1 , please.
**Result** -1.59

**Query** Tell me the measured inhibition of CC(C)NC(=O)NC(=O)COC(=O)c1cc(S(=O)(=O)N2CCCCC2)ccc1N1CCOCC1 , please.
**Result** -4.42

**Query** Tell me the measured inhibition of COc1ccc(N/N=C(\C#N)C(=N)N2CCOCC2)cc1 , please.
**Result** 0.407

**Query** Tell me the measured inhibition of COCc1ccc(O)c2ncccc12 , please.
**Result** 2.78

**Query** Tell me the measured inhibition of COc1ccc(-c2csc(N(CCc3ccc(OC)c(OC)c3)C(=O)COc3ccccc3)n2)cc1 , please.
**Result** 1.44

**Query** Tell me the measured inhibition of O=C1CCC(=O)N1OCCOc1ccccc1 , please.
**Result** 6.54

**Query** Tell me the measured inhibition of COc1cccc(C(=O)NCCS(=O)(=O)NCc2cccnc2)c1 , please.
**Result** -2.08

**Query** Tell me the measured inhibition of COc1ccc(Br)cc1/C=N/NC(=O)Cn1nnnc1N , please.
**Result** 0.27

**Query** Tell me the measured inhibition of CC1(C)C2CC=C(CN3CCC(O)CC3)C1C2 (stereo unspecified) , please.
**Result** 4.73

**Query** Tell me the measured inhibition of Oc1ccc(Cl)c2cccnc12 , please.
**Result** -4.63

**Query** Tell me the measured inhibition of O=C(N/N=C/c1cc([N+](=O)[O-])ccc1O)Nc1ccccc1 , please.
**Result** -0.02

**Query** Tell me the measured inhibition of Cc1ccc(S(=O)(=O)Nc2ccc(O)c3cccnc23)cc1 , please.
**Result** -4.48

**Query** Tell me the measured inhibition of Nc1nc(NC(=O)c2ccco2)nn1-c1ccccc1 , please.
**Result** 5.18

**Query** Tell me the measured inhibition of CSCCC(NC(=O)COc1ccccc1)C(=O)N1CCCCC1 (stereo unspecified) , please.
**Result** 0.87

**Query** Tell me the measured inhibition of O=[N+]([O-])c1nn(-c2ccc3c(c2)OCCO3)n(O)c1=NC1CCCC1 , please.
**Result** 15.3

**Query** Tell me the measured inhibition of O=C(Nc1ccc2c(c1)OCO2)C1COc2ccccc2O1 (stereo unspecified) , please.
**Result** -3.64

**Query** Tell me the measured inhibition of Oc1c(Br)cc(Br)c2cccnc12 , please.
**Result** -9.24

**Query** Tell me the measured inhibition of Cc1ccc(C)c(OCCn2cc(/C=C(\C#N)C(=O)NCC3CCCO3)c3ccccc32)c1 (stereo unspecified) , please.
**Result** 5.75

**Query** Tell me the measured inhibition of Oc1c(CN2CCN(c3ccccc3)CC2)cc(Br)c2cccnc12 , please.
**Result** 14.4

**Query** Tell me the measured inhibition of [O-][N+]1=c2ccc(Nc3ccccc3)cc2=NC12CCCCC2 , please.
**Result** 16.6
